test system: CCRIS mutagenicity, Ames/micronucleus/aberration tests; assay: CCRIS mutagenicity studies; conditions: Test System: AMES SALMONELLA TYPHIMURIUM; Strain/Indicator: TA100; Metabolic Activation: NONE; Method: PREINCUBATION
Activity calls are given as the source filed them. The rule behind the calls is not given here.
The categories you may choose from are active, inactive

>>> print(df.to_string())
      smiles_code  classification
0  c1ccc2cnccc2c1        inactive

Tell me the assay call for Cc1ccc(C(=O)c2cc(O)c(O)c([N+](=O)[O-])c2)cc1 please. inactive

Tell me the assay call for CC(=O)c1c(=O)cc(C)oc1=O please. inactive

Tell me the assay call for O=c1[nH]c(=O)n(Cl)c(=O)n1Cl please. inactive

* * *

tested on: CCRIS mutagenicity, Ames/micronucleus/aberration tests; experiment: CCRIS mutagenicity studies; details: Test System: AMES SALMONELLA TYPHIMURIUM; Strain/Indicator: TA1535; Metabolic Activation: RAT, LIVER, S-9, AROCLOR 1254; Method: STANDARD PLATE
The source made the active and inactive calls. How the calls were made is not given here. Where a SMILES comes first, the peptide text is derived from it.
The categories you may choose from are true for active, false for inactive

Some solved cases for reference:
COMPOUND	CLASSIFICATION
COc1cc(N)cc(OC)c1N	false
N#CC(Cl)Cl	true
O=[N+]([O-])/C(Br)=C\c1ccccc1	false
CCOCOCC	false
O[C@@H]1C=CC=C[C@H]1O	true
O=S(O)S(=O)(=O)O	false
O=C(O)/C=C/c1ccc(O)c(O)c1	false
CN(C)c1ccc([C@H]2C[C@@]3(C)[C@@H](CC[C@@]3(O)/C=C\CO)[C@@H]3CCC4=CC(=O)CCC4=C32)cc1	false
O=S(=O)(Oc1ccc(Cl)cc1Cl)c1cccc2cccnc12	false
c1ccc2cc3cc4ccccc4cc3cc2c1	false

Tell me the assay call for CC(C)=CCC1=C(O)c2ccccc2C(=O)C1=O please. false

Tell me the assay call for c1ccc(-c2ccccc2)cc1 please. false

Tell me the assay call for NCCCC[C@H](NC(=O)[C@H](Cc1c[nH]c2ccccc12)NC(=O)[C@@H](N)CCCCN)C(=O)O (H-Lys-Trp-Lys-OH) please. false

Tell me the assay call for CCNc1nc(Cl)nc(NC(C)C)n1 please. false

Tell me the assay call for C=CC(=O)OCCCCCOC(=O)C=C please. false

* * *

test system: CCRIS mutagenicity, Ames/micronucleus/aberration tests; assay: CCRIS mutagenicity studies; conditions: Test System: AMES SALMONELLA TYPHIMURIUM; Strain/Indicator: TA1535; Metabolic Activation: NONE; Method: STANDARD PLATE
The source made the active and inactive calls. How the calls were made is not given here.
The categories you may choose from are active, inactive

Some solved cases for reference:
COMPOUND	CLASSIFICATION
CCOC(=O)C(SP(=S)(OC)OC)c1ccccc1 (stereo not drawn)	inactive
Cc1ccccc1NS(=O)(=O)c1cccc2cccnc12	inactive
C[C@H](CCC(=O)NCCS(=O)(=O)O)[C@H]1CC[C@H]2[C@@H]3C[C@H](O)[C@@H]4C[C@H](O)CC[C@]4(C)[C@H]3CC[C@]12C	inactive
NC(=O)NO	inactive
N#CC(Cl)(Cl)Cl	inactive
CCCCOC(=O)c1cccc2cccnc12	inactive
CN(Cc1cccc(Cl)c1)N=O	inactive
C=C(C)C(=O)OCC(C)(C)C	inactive

Tell me the assay call for O[C@@H]1C=CC=C[C@H]1O please. inactive

Tell me the assay call for CCN(C=O)N=O please. active

Tell me the assay call for ClCCl please. inactive

Tell me the assay call for Cc1ccc(N)c(S(=O)(=O)O)c1 please. inactive

Tell me the assay call for CC(C(=O)O)c1ccc(Oc2nccs2)cc1 (stereo not drawn) please. inactive
